Assay: Cytotoxicity in hepatoma cells (MTS)
Conditions: human, HepDES19 cells, CC50, HepDES19 cells, 72 hours, MTS
Consider the following molecules and their measured CC50 at 72 h readings.
reported.property: CC50 at 72 h (µM)

{"molecule": "COC(=O)c1c(CCl)cc(O)c(=O)c(O)c1C(=O)OC", "reported.property": "CC50 at 72 h", "sign.qualifier": "=", "measured.value": 85.5}
{"molecule": "O=c1ccccc(Br)c1O", "reported.property": "CC50 at 72 h", "sign.qualifier": "=", "measured.value": 95}
{"molecule": "Cc1ccc(C(=O)Nc2cccccc2=O)cc1", "reported.property": "CC50 at 72 h", "sign.qualifier": ">", "measured.value": 100}
{"molecule": "Cc1cc(O)c(=O)c(O)cc1C(=O)C1CCCCC1", "reported.property": "CC50 at 72 h", "sign.qualifier": "=", "measured.value": 21.5}
{"molecule": "Cc1cc(O)c(=O)c(O)cc1-c1ccc(C(F)(F)F)cc1", "reported.property": "CC50 at 72 h", "sign.qualifier": "=", "measured.value": 11}
{"molecule": "O=C(Oc1cccccc1=O)c1ccc([N+](=O)[O-])cc1 [Compound 51, tropolone p-nitrobenzoate]", "reported.property": "CC50 at 72 h", "sign.qualifier": ">", "measured.value": 100}
{"molecule": "Cc1cc(O)c(=O)c(O)cc1C(=O)C1CC1", "reported.property": "CC50 at 72 h", "sign.qualifier": "=", "measured.value": 35}
{"molecule": "C=C(C)C1CCc2c(c(C)cc(O)c(=O)c2O)C1 (stereo not drawn)", "reported.property": "CC50 at 72 h", "sign.qualifier": "=", "measured.value": 27}
{"molecule": "COCc1cc(O)c(=O)c(O)c(C(=O)OC)c1C(=O)OC", "reported.property": "CC50 at 72 h", "sign.qualifier": "=", "measured.value": 90.5}
